# Target entity: Rat 5HT7 Receptors (Rattus norvegicus)
# Construct: expressed in transfected cells; host or cells: HEK-293
# Sequence (P32305 whole entry): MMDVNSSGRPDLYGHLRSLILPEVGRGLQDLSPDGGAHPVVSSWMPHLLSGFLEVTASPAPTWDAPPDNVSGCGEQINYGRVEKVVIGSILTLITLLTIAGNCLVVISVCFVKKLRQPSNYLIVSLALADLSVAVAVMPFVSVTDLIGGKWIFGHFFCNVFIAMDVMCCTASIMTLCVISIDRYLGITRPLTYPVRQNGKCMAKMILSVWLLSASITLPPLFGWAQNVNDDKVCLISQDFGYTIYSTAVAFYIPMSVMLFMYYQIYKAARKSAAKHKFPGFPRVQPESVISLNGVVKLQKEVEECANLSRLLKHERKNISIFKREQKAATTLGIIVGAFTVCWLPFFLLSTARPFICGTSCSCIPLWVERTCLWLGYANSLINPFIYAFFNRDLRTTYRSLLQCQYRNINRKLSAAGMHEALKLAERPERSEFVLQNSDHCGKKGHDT
# Measurement notes: 3H-5-Carboxamidotryptamine (3H-5-CT) binding to rat 5HT7 receptors expressed in HEK-293 cells
# Experimental: The affinities of the active compounds for 5HT7 receptors can be determined using standard radioligand binding assays as described in the literature. The 5HT7 affinity can be measured using the following procedure. […] Nonspecific binding is determined using 1 uM 5-HT creatinine sulfate. […] Radioactivity is quantified by liquid scintillation counting using a BetaPlate counter (LKB). The percent inhibition of specific binding is calculated for each concentration of test compound. […]
Attribute measured: Ki

1. Cc1cnc2c(C3CCCNC3)cccc2c1 (racemic)
~7.6 nM
